target: LolA (LolA-PG) (Porphyromonas gingivalis); construct: LolA residues 27–215; assay: isothermal titration calorimetry (single-site model, […] °C)
parameter.measured: pKd
The value called pKd is obtained by taking minus log10 of the concentration in mol/L.

[ask] Notebook entry, LolA (LolA-PG) (Porphyromonas gingivalis) assay: pKd of N=C(N)SCc1ccc(Cl)c(Cl)c1 = ?
[reply] 3.17
